Biological target: UniProt:P28808
Sequence (P28808 whole entry, looked up): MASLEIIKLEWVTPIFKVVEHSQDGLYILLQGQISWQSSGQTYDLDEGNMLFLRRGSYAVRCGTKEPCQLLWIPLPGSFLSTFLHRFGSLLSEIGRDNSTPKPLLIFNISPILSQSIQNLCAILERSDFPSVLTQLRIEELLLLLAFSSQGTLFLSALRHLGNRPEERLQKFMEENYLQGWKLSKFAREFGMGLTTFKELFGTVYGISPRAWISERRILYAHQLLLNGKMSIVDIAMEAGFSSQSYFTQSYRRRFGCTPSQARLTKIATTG
Assay: biochemical
We begin with a simple list: items and their reported IC50.

Examples with answers:
Compound	IC50
O=C(/C=C/c1ccc(F)cc1)Nc1ccc(-c2nc3ccc(F)cc3n2O)cc1 [Compound AC]	> 50 µM
O=C(Nc1ccc(-c2nc3ccc([N+](=O)[O-])cc3n2O)cc1)c1ccc(-n2cccn2)nc1 [Compound I]	25 to 50 µM
CC(=O)c1ccc(/C=C/C(=O)Nc2ccc(-c3nc4ccc(Cl)cc4n3O)cc2)cc1 [B]	> 50 µM
O=C(/C=C/c1ccc(F)cc1)Nc1ccc(-c2nc3ccc(Cl)cc3n2O)cc1 [AG]	> 50 µM
O=C(O)Cc1cc([N+](=O)[O-])cc2c1nc(-c1ccc(NC(=O)c3ccc(-n4ccnc4)cc3)cc1)n2O [Compound AA]	< 10 µM

Here is another compound to look at.
Given O=C(Nc1ccc(-c2nc3ccc([N+](=O)[O-])cc3n2O)cc1)c1cccc(N2CCOCC2)n1 [Compound N] , state its recorded IC50.
> 50 µM
